Values compiled from PubChem BioAssay AID1159580.

# Assay comment: chemical genetic growth profiling, strain panel (AID 1159580);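 also: tested at 20 µM; growth read once vehicle control cultures reached saturation at 30 °C; 1 = growth at the plate median or of vehicle wells; lower values mean less growth of the strain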
# Protocol conditions: S. cerevisiae deletion strains, growth OD, locus YLR258W, strain gsy2, hits give low values
Screen size: about 5,500 compounds; about 2,000 (36%) were called active. Not shown: some 18% with an inconclusive outcome. This is one part of the list.
Value kind: normalized growth

Compound | Value kind | Endpoint result
CC(C)(C)NCC(O)COc1cccc2c1C[C@H](O)[C@H](O)C2 (some centres undefined) | normalized growth | 0.998 (inactive)

Query: Look at this compound and give its reported normalized growth. C[C@H]1O[C@@H](O[C@H]2[C@@H](O)C[C@H](O[C@H]3[C@@H](O)C[C@H](O[C@H]4CC[C@]5(C)C6CC[C@]7(C)[C@@H](C8=CC(=O)OC8)CC[C@]7(O)C6CC[C@@H]5C4)O[C@@H]3C)O[C@@H]2C)C[C@H](O)[C@@H]1O (some centres undefined)
Response: 0.96 (inactive)

Query: Try the compound C[C@H]1O[C@@H](O[C@H]2[C@@H](O)C[C@H](O[C@H]3[C@@H](O)C[C@H](O[C@H]4CC[C@]5(C)C6C[C@@H](O)[C@]7(C)[C@@H](C8=CC(=O)OC8)CC[C@]7(O)C6CC[C@@H]5C4)O[C@@H]3C)O[C@@H]2C)C[C@H](O)[C@@H]1O (some centres undefined)
Response: 1.01 (inactive)

Query: Try the compound O=c1c(-c2ccc(O)cc2)coc2c(C3O[C@H](CO)[C@@H](O)[C@H](O)[C@H]3O)c(O)ccc12 (some centres undefined)
Response: 0.982 (inactive)

Query: Try the compound CC1Cc2ccccc2N1NC(=O)c1ccc(Cl)c(S(N)(=O)=O)c1 (centres undefined)
Response: 1.01 (inactive)

Query: Try the compound COC1CC(OC2CCC3(C)C(CCC4C3CCC3(C)C(C5=CC(=O)OC5)C(OC(C)=O)CC43O)C2)OC(C)C1O (centres undefined)
Response: 1.01 (inactive)

Query: Try the compound C=CCSSSCC=C
Response: 0.999 (inactive)

Query: Try the compound COC1C(O)C(O[C@H]2CC[C@]3(C=O)C4C(CC[C@]3(O)C2)[C@@]2(O)CC[C@H](C3=CC(=O)OC3)[C@@]2(C)C[C@H]4OC(C)=O)OC(C)C1OC(C)=O (some centres undefined)
Response: 0.973 (inactive)

Query: Try the compound COc1c(O)cc2c(c1O)[C@H]1O[C@H](CO)[C@@H](O)[C@H](O)[C@@H]1OC2=O
Response: 1.04 (inactive)

Query: Try the compound C[C@]12CCC3C(CC[C@]4(O)C[C@@H](O)CC[C@]34C=O)[C@@]1(O)CCC2C1=CC(=O)OC1 (some centres undefined)
Response: 0.965 (inactive)

Query: Try the compound C[N+]1(C)C[C@H](O)[C@H](C(=O)[O-])C1
Response: 1.03 (inactive)

Query: Try the compound CC1CCCC(C)N1NC(=O)c1ccc(Cl)c(S(N)(=O)=O)c1 (centres undefined)
Response: 0.998 (inactive)

Query: Try the compound CO[C@@H]1[C@@H](OC(N)=O)[C@@H](O)[C@H](Oc2ccc3c(O)c(NC(=O)c4ccc(O)c(CC=C(C)C)c4)c(=O)oc3c2C)OC1(C)C
Response: 1.03 (inactive)

Query: Try the compound NC[C@H]1O[C@H](OC2[C@@H](N)C[C@@H](N)[C@H](O[C@H]3O[C@H](CO)[C@@H](O)[C@H](N)[C@H]3O)[C@H]2O)[C@H](O)[C@@H](O)[C@@H]1O (some centres undefined)
Response: 1 (inactive)
